Data origin: ChEMBL document CHEMBL1201862

# target of assay: UniProtKB P38532
# Sequence (P38532 whole entry): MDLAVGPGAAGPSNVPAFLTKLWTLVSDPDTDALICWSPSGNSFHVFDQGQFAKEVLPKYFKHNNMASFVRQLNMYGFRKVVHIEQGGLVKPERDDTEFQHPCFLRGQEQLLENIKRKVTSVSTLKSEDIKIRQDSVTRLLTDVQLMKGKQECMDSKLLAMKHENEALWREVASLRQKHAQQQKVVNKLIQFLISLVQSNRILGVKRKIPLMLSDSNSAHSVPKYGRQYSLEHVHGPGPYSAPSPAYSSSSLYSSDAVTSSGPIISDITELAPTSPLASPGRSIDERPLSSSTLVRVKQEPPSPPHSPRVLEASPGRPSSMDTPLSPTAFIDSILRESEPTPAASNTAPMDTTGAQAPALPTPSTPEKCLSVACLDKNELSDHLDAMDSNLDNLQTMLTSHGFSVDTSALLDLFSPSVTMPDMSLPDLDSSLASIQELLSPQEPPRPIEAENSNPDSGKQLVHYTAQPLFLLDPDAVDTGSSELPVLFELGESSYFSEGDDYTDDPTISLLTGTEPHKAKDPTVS
# assay overview: HSF1 potentiators in luciferase reporter cells, confirmation, cell-based, NIH3T3, luminescence, dose retest (AID 435004);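 also: stress induced by proteasome inhibitor MG132 added 30 min after compound; luciferase reporter driven by HSF1 response element in NIH3T3 cells; actives raise luminescence as potentiators of the MG132 stress response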
# Format: functional
The source made the active and inactive calls. Rule as the data show it: actives have a measured EC50 and inactives only a lower limit.
Write down the outcome that applies. Available outcomes: yes = active, no = inactive

>  <molecule>
O=C(O)C1CCCCC1C(=O)Nc1ccc2c(c1)CCC2 (centres undefined)

>  <group label>
no

$$$$
>  <molecule>
CCOc1ccc2nc(COC(=O)c3cccc([N+](=O)[O-])c3)c(C(C)=O)[n+]([O-])c2c1

>  <group label>
no

$$$$
>  <molecule>
COc1ccc(C2CC(c3cccs3)=NN2c2nc(C)c(C(C)=O)s2)cc1OC (centres undefined)

>  <group label>
yes

$$$$

Lookup: Could you check what this test reported for CNc1nc(SC(C)C(=O)Nc2ccc(Cl)c(Cl)c2)nc(N2CCOCC2)n1 (centres undefined) ?
Found: no

Lookup: What do you have for COCOc1cc(O)c(C(=O)/C=C/c2ccccc2)c(OCOC)c1 ?
Found: yes

Lookup: What do you have for Cc1cccc(NC(=O)CSc2nnc(-c3ccco3)c(-c3ccco3)n2)c1C ?
Found: no

Lookup: What do you have for CCCCNc1cc(NC(C)=O)cc2cc(OC)c(OC)cc12 ?
Found: no

Lookup: What do you have for O=C(NC1CCCCC1)c1cnn2c(C(F)(F)F)cc(-c3ccco3)nc12 ?
Found: no

---

# System: Streptococcus
# assay overview: Group A Streptococcus viability loss, dose response, counter-screen for streptokinase expression inhibitor project, luminescence, BacTiterGlo (AID 1915);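 also: potency for reduction of bacterial viability or growth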
# Assay type: functional, organism-based
Activity calls are given as the source filed them. No stated cut-off is given here; in the data, actives have a measured EC50 and inactives only a lower limit.
Would you kindly list EC50 for each of these molecules?

Check out these entries, answers already filled in.
>  <smiles representation>
Cc1nn2c(NCc3ccccn3)cc(C(C)C)nc2c1-c1ccccc1

>  <result>
23.2 µM (active)

$$$$
>  <smiles representation>
O=C(CSC(=S)N1CCOCC1)c1cc(Br)cc(Br)c1O

>  <result>
> 150 µM (not active)

$$$$
>  <smiles representation>
CCN(CC)S(=O)(=O)c1cccc(C(=O)Nc2nc3cc4c(cc3s2)OCCO4)c1

>  <result>
7.62 µM (active)

$$$$
>  <smiles representation>
Cc1c(NCc2cc(Cl)cc(Cl)c2O)c(=O)n(-c2ccccc2)n1C

>  <result>
> 150 µM (not active)

$$$$

Lookup: Consider the molecule O=C(Cc1ccc(Br)cc1)Nc1nc2ccccc2[nH]1 and give its measured EC50.
Found: > 150 µM (not active)
